Taken from PubChem BioAssay (NCI).

System: RPMI-8226 leukemia
Experiment: NCI-60 one-dose screen, 48 h (100 = growth as untreated, 0 = no growth, -100 = all killed)
Conditions: 10 µM unless noted
The panel holds about 83,000 compounds, 20% with a hit somewhere; the sample as a whole holds those more often. Calls of active or inactive are those of the source. Rule for the calls: active = growth percent below 10; inactive = the rest.
Below, each of the molecules is paired with its reported growth value.

MOLECULE	SUBJECT OF TEST	growth
CCOC(=O)C1=C(C)NC(=O)NC1c1ccc(OCC(=O)N/N=C/c2ccc(Cl)cc2)cc1 (centres undefined)	RPMI-8226 leukemia	90.1% (inactive)
C=C1C(=O)O[C@H]2[C@H](O)[C@@H](C)CCC/C(C)=C/CC[C@@]3(C)O[C@@H]3C[C@@H]12	RPMI-8226 leukemia	99.8% (inactive)
COC(=O)CCCCN=Cc1c(O)c(O)c(C(C)C)c2cc(C)c(-c3c(C)cc4c(C(C)C)c(O)c(O)c(C=NCCCCC(=O)OC)c4c3O)c(O)c12	RPMI-8226 leukemia	17.7% (inactive)
CCCCCCc1nc2c(c(C)nn2-c2ccccc2)c2c1CCCCC2	RPMI-8226 leukemia	105% (inactive)
COC1=CC(c2ccc[nH]2)=N/C1=C\c1[nH]c(C)c(C(=O)CCCCC(=O)Nc2ccccc2)c1C	RPMI-8226 leukemia	126% (inactive)
C#CCN1C(=O)/C(=c2\sc3n(c2=O)NC2C(N=3)N(CC)C(=O)N2CC)c2ccccc21 (centres undefined)	RPMI-8226 leukemia	59.3% (inactive)
CN(C)C/C=C/C(=O)Nc1cc2c(Nc3ccc(F)c(Cl)c3F)ncnc2cc1OCCOC(F)F	RPMI-8226 leukemia	11.4% (inactive)
Cc1cc(NC(=O)COC(=O)c2sc3cc(F)ccc3c2Cl)no1	RPMI-8226 leukemia	114% (inactive)
Clc1ccc2c(c1)NC1(CCSc3ccccc31)n1nccc1-2 (centres undefined)	RPMI-8226 leukemia	94.6% (inactive)
